Where these numbers come from: patent US20240245677A1

- measurementProtocol: Pharmacokinetic study in male CD1 mice
- Type: in vivo, mouse
- condition: male, CD1, mouse, plasma, intravenous, 2 mg/kg, 2 mg/kg IV, 8 h; read-out: Plasma Concentration, Average
measurementType: concentration at 8 h
Kindly write the number and append the unit.

What value of measured concentration at 8 h is listed for COc1cc(-c2cn(C)c(=O)c(C)c2C)cc(OC)c1CN1CC[C@H](N2CCN(c3ccc(N[C@H]4CCC(=O)NC4=O)cc3F)CC2)C(F)(F)C1 [Compound 1] ?
256 ng/mL

###

- measurementProtocol: Pharmacokinetic study in male Sprague Dawley rats
- Assay type: in vivo, rat
- condition: male, Sprague Dawley, rat, plasma, intravenous, 2 mg/kg, 2 mg/kg IV, 24 h; read-out: Plasma Concentration, individual rats
measurementType: concentration at 24 h (ng/mL)
Give just the numeric value; ng/mL need not be written.

Which concentration at 24 h value is on record for COc1cc(-c2cn(C)c(=O)c(C)c2C)cc(OC)c1CN1CC[C@H](N2CCN(c3ccc(N[C@H]4CCC(=O)NC4=O)cc3F)CC2)C(F)(F)C1 [Compound 1] ?
4.54

###

- measurementProtocol: Human Hepatocyte Stability Assay
- Type: in vitro ADME
- condition: cryopreserved hepatocytes, read-out: CL int in vivo
measurementType: CLint scaled at 1 µM (mL/min/kg)
Lab book: enter the figure in mL/min/kg, no units written.

Find the recorded CLint scaled at 1 µM belonging to "COc1cc(-c2cn(C)c(=O)c(C)c2C)cc(OC)c1CN1CC[C@H](N2CCN(c3ccc(N[C@H]4CCC(=O)NC4=O)cc3F)CC2)C(F)(F)C1" and report it.
14.4

###

- measurementProtocol: Pharmacokinetic study in male Sprague Dawley rats
- Assay type: in vivo, rat
- condition: male, Sprague Dawley, rat, plasma, oral, 10 mg/kg, 10 mg/kg PO, Male Sprague Dawley Rats, 8 h, Rat-1; read-out: Plasma Concentration (ng/mL) Rat-1
measurementType: concentration at 8 h (ng/mL)
# number only, unit ng/mL dropped from output

What value of concentration at 8 h has been reported for the following compound? "COc1cc(-c2cn(C)c(=O)c(C)c2C)cc(OC)c1CN1CC[C@H](N2CCN(c3ccc(N[C@H]4CCC(=O)NC4=O)cc3F)CC2)C(F)(F)C1"
304

###

- measurementProtocol: Pharmacokinetic study in male CD1 mice
- Type: in vivo, mouse
- condition: mouse, plasma; male CD1 mice, 2 mg/kg IV, Mean
- Experimental: The pharmacokinetic (PK) profile in plasma of Compound 1 was determined in male CD1 mice following single dose intravenous (IV) (2 mg/kg) and per os (PO) (10 mg/kg) administration. […] All animals were housed in cages with clean bedding and maintained and monitored for good health and at the discretion of the laboratory animal veterinarian. […] After blood collection from each animal, the sample from that animal was recorded in the sample collection sheet. […]
measurementType: MRT last (h)
Answer in h, number only, no unit symbol.

Tell me the measured MRT last of COc1cc(-c2cn(C)c(=O)c(C)c2C)cc(OC)c1CN1CC[C@H](N2CCN(c3ccc(N[C@H]4CCC(=O)NC4=O)cc3F)CC2)C(F)(F)C1 [Compound 1] , please.
5.15

###

- measurementProtocol: Pharmacokinetic study in male Sprague Dawley rats
- Type: in vivo, rat
- condition: male, Sprague Dawley, rat, plasma, oral, 10 mg/kg, 10 mg/kg PO, Male Sprague Dawley Rats, 8 h, average; read-out: Plasma Concentration Average
measurementType: concentration at 8 h (ng/mL)
Use ng/mL as the unit, but write only the number.

concentration at 8 h lookup needed for COc1cc(-c2cn(C)c(=O)c(C)c2C)cc(OC)c1CN1CC[C@H](N2CCN(c3ccc(N[C@H]4CCC(=O)NC4=O)cc3F)CC2)C(F)(F)C1 [Compound 1] , thanks.
400

###

- measurementProtocol: Pharmacokinetic study in male Sprague Dawley rats
- Format: in vivo, rat
- condition: male, Sprague Dawley, rat, plasma, oral, 10 mg/kg, 10 mg/kg PO, Male Sprague Dawley Rats, 2 h, Rat-2; read-out: Plasma Concentration (ng/mL) Rat-2
measurementType: concentration at 2 h (ng/mL)
The reply should be a number in ng/mL, with the unit left off.

Please report the recorded concentration at 2 h for COc1cc(-c2cn(C)c(=O)c(C)c2C)cc(OC)c1CN1CC[C@H](N2CCN(c3ccc(N[C@H]4CCC(=O)NC4=O)cc3F)CC2)C(F)(F)C1 [Compound 1] .
864

###

- measurementProtocol: Pharmacokinetic study in male CD1 mice
- Assay type: in vivo, mouse
- condition: mouse, plasma; male CD1 mice, 10 mg/kg PO, Mean
measurementType: Cmax (ng/mL)
Reply with just the number (in ng/mL).

Data request, read-out Cmax, for "COc1cc(-c2cn(C)c(=O)c(C)c2C)cc(OC)c1CN1CC[C@H](N2CCN(c3ccc(N[C@H]4CCC(=O)NC4=O)cc3F)CC2)C(F)(F)C1"
3460

###

- measurementProtocol: HepG2 in vitro viability assay (CellTiter-Glo, 72 hours)
- Assay type: cell-based, human
- condition: human, HepG2 cells; 100 nM, 72-hour treatment
measurementType: viability at 72 h, 0.1 µM
I'd appreciate it if you wrote the number followed by its unit.

What value of measured viability at 72 h, 0.1 µM is listed for COc1cc(-c2cn(C)c(=O)c(C)c2C)cc(OC)c1CN1CC[C@H](N2CCN(c3ccc(N[C@H]4CCC(=O)NC4=O)cc3F)CC2)C(F)(F)C1 [Compound 1] ?
92.5%

###

- measurementProtocol: Pharmacokinetic study in male CD1 mice
- Format: in vivo, mouse
- condition: mouse, plasma; male CD1 mice, 10 mg/kg PO, Mean
measurementType: half-life
# output: numeric value plus its unit

# half-life lookup, item "COc1cc(-c2cn(C)c(=O)c(C)c2C)cc(OC)c1CN1CC[C@H](N2CCN(c3ccc(N[C@H]4CCC(=O)NC4=O)cc3F)CC2)C(F)(F)C1"
3.54 h

###

- measurementProtocol: Pharmacokinetic study in male Sprague Dawley rats
- Format: in vivo, rat
- condition: rat, plasma; 10 mg/kg PO, Male Sprague Dawley Rats, mean
- Procedure: The pharmacokinetic (PK) profile in plasma of Compound 1 was determined in male Sprague Dawley rats following single dose intravenous (IV) (2 mg/kg) and per os (PO) (10 mg/kg) administration. […] All animals were housed in cages with clean bedding and maintained and monitored for good health and at the discretion of the laboratory animal veterinarian. […]
measurementType: half-life (h)
Write the answer as a number in h, unit excluded.

Endpoint output: half-life of "COc1cc(-c2cn(C)c(=O)c(C)c2C)cc(OC)c1CN1CC[C@H](N2CCN(c3ccc(N[C@H]4CCC(=O)NC4=O)cc3F)CC2)C(F)(F)C1" . Value?
5.12

###

- measurementProtocol: Pharmacokinetic study in male Sprague Dawley rats
- Type: in vivo, rat
- condition: male, Sprague Dawley, rat, plasma, oral, 10 mg/kg, 10 mg/kg PO, Male Sprague Dawley Rats, 4 h, Rat-1; *Outlier: Aberrant value; read-out: Plasma Concentration (ng/mL) Rat-1
measurementType: concentration at 4 h (ng/mL)
Provide the reading as a plain figure in ng/mL.

Sample COc1cc(-c2cn(C)c(=O)c(C)c2C)cc(OC)c1CN1CC[C@H](N2CCN(c3ccc(N[C@H]4CCC(=O)NC4=O)cc3F)CC2)C(F)(F)C1 [Compound 1] — what was its concentration at 4 h?
227

###

- measurementProtocol: Rat Hepatocyte Stability Assay
- Type: in vitro ADME
- condition: Sprague-Dawley, cryopreserved hepatocytes, read-out: CL int cells
measurementType: hepatocyte CLint at 1 µM (µL/min/1e6 cells)
Numbers only here, please. The scale is µL/min/1e6 cells.

Recorded hepatocyte CLint at 1 µM for "COc1cc(-c2cn(C)c(=O)c(C)c2C)cc(OC)c1CN1CC[C@H](N2CCN(c3ccc(N[C@H]4CCC(=O)NC4=O)cc3F)CC2)C(F)(F)C1" , please?
3.7

###

- targetOrTestSystem: BRD9 (Homo sapiens)
- Sequence (Q9H8M2 1-597): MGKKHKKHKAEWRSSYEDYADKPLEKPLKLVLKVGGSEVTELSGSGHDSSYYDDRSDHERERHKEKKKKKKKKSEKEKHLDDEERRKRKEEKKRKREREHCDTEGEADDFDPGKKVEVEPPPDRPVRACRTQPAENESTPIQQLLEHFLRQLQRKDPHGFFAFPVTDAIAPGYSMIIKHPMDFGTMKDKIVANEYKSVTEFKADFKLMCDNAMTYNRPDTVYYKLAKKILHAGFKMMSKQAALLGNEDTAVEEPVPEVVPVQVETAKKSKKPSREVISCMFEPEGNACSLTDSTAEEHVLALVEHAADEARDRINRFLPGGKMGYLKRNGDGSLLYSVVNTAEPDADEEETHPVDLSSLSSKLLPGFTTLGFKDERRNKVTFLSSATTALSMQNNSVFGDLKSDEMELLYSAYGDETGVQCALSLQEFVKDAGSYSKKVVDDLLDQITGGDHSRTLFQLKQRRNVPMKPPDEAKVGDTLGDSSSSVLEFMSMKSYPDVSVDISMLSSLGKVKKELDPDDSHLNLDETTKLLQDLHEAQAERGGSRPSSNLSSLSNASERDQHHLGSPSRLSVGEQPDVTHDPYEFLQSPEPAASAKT
- measurementProtocol: BRD9 HiBiT degradation assay in 293T.166 (HEK293T.166) cells
- Assay type: cell-based
- Set-up: endogenously expressing BRD9 with HiBiT fusion tag via CRISPR; host or cells: HEK293T.166 (293T.166, BRD9-HiBiT HEK293, LgBiT by lentivirus)
- condition: 293T.166 cells, 2.0 hours; read-out: HiBiT-Degradation 293T.166 BRD9 2.0 hours (DC50)
measurementType: DC50

Worked cases, answers included:
COc1cc(-c2cn(C)c(=O)c(C)c2C)cc(OC)c1CN1CC[C@@H](N2CCN(c3ccc(N[C@H]4CCC(=O)NC4=O)cc3F)CC2)C(F)(F)C1 :: < 100 nM
COc1cc(-c2cn(C)c(=O)c(C)c2C)cc(OC)c1CN1CC[C@H](N2CCN(c3ccc(N[C@H]4CCC(=O)NC4=O)cc3F)CC2)C(F)(F)C1 :: < 100 nM
COc1cc(-c2cn(C)c(=O)c(C)c2C)cc(OC)c1CN1CC[C@@H](N2CCN(c3ccc(N[C@@H]4CCC(=O)NC4=O)cc3F)CC2)C(F)(F)C1 :: < 100 nM
COc1cc(-c2cn(C)c(=O)c(C)c2C)cc(OC)c1CN1CCC(N2CCN(c3ccc(NC4CCC(=O)NC4=O)cc3F)CC2)C(F)(F)C1 (centres unmarked) :: < 100 nM

What value of measured DC50 is listed for "COc1cc(-c2cn(C)c(=O)c(C)c2C)cc(OC)c1CN1CC[C@H](N2CCN(c3ccc(N[C@@H]4CCC(=O)NC4=O)cc3F)CC2)C(F)(F)C1" ?
< 100 nM
